Provide the recorded QH for the entries that follow.
- Organism: Homo sapiens
- Assay Protocol: Hepatic blood flow in human
- Format: ADME, organism-based, Liver

# input Dear colleague, I am looking for the recorded QH of the following molecule: "CC(C)(C)c1cc(NC(=O)N2CCCN(C(=O)C3CCOCC3)CC2)no1"
# output < 24%

# input Dear colleague, I am looking for the recorded QH of the following molecule: "CC(C)(C)c1cc(NC(=O)N2CCCN(C(=O)CN3CCS(=O)(=O)CC3)CC2)no1"
# output 50%

# input Dear colleague, I am looking for the recorded QH of the following molecule: "CC(C)(C)c1cc(NC(=O)N2CCCN(C(=O)N3CCS(=O)(=O)CC3)CC2)no1"
# output < 24%

# input Dear colleague, I am looking for the recorded QH of the following molecule: "CC(C)(C)c1cc(NC(=O)N2CCCN(C(=O)C3CCOCC3)CC2)on1"
# output < 24%
